Target: T1, shFcRn (soluble human FcRn) (human, UniProt P55899 24-297; P61769 21-119)
T1 construct: extracellular domain; Printed only as 'soluble human FcRn'; also called hFcRn (immobilized on a chip)
T1 sequence (P55899 24-297 limits assumed, chain 1 of 2): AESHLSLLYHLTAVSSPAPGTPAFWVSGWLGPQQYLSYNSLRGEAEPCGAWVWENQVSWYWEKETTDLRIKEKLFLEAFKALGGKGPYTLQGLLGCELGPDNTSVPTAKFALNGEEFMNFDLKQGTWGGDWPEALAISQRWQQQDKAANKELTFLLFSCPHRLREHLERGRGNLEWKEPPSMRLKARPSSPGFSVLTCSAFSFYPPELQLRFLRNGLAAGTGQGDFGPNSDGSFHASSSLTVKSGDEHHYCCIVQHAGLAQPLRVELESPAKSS
T1 sequence (P61769 21-119 limits assumed, chain 2 of 2): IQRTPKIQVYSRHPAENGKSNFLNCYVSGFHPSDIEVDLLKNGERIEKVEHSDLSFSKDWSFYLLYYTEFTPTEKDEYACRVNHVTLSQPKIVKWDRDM
Experiment: SPR, shFcRn immobilized on chip, antibody as analyte, pH 7.4;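 note: kinetics fitted with a 1:1 Langmuir model, association 200 s and dissociation 600 s in PBST, double-referenced against buffer-only and interspot signals, values averaged over repeated runs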
reported-endpoint: Kd (nM)
Answer in nM, number only, no unit symbol.

INSERT INTO results (binder, reported_endpoint, assay_result) VALUES
  ('HL161AN variant No. 20 (LC:N25Q, HC:C32Y Q82S) (antibody, human IgG1, V domains shown, Variable domains only) VL: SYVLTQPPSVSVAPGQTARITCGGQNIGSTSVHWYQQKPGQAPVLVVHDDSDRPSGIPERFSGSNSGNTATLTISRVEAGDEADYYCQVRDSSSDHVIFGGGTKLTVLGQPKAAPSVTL VH: EVQLLESGGGLVQPGGSLRLSCAASEFTFGSYVMTWVRQAPGKGLEWVSVISGSGGSTYYADSVKGRFTISRDNSKNTLYLSMNSLRAEDTAVYYCAKTPWWLRSPFFDYWGQGTLVTVSS', 'Kd', 0.283);

query: # query: Kd of entry HL161AN variant No. 4 (LC:N25S, HC:Q82T) (antibody, human IgG1, V domains shown, Variable domains only) VL: SYVLTQPPSVSVAPGQTARITCGGSNIGSTSVHWYQQKPGQAPVLVVHDDSDRPSGIPERFSGSNSGNTATLTISRVEAGDEADYYCQVRDSSSDHVIFGGGTKLTVLGQPKAAPSVTL VH: EVQLLESGGGLVQPGGSLRLSCAASEFTFGSCVMTWVRQAPGKGLEWVSVISGSGGSTYYADSVKGRFTISRDNSKNTLYLTMNSLRAEDTAVYYCAKTPWWLRSPFFDYWGQGTLVTVSS
result: 0.24
